System: DIPGX37 (H3.3 K27M diffuse intrinsic pontine glioma line)
Test: growth inhibition (% activity, log2 RLU normalised to DMSO / staurosporine); higher = more growth inhibition
Details: 33 µM
PARAMETER: growth inhibition (%)
// units = %; emit number, no label

Use the examples below as a reference point.
Indicate its recorded growth inhibition; the compound in question is C[N+](C)(CCOc1ccccc1)Cc1ccccc1.O=C([O-])c1cc2ccccc2cc1O
0.336

Indicate its recorded growth inhibition; the compound in question is C[C@@H](NCCCc1cccc(C(F)(F)F)c1)c1cccc2ccccc12
3.26

More entries:
Indicate its recorded growth inhibition; the compound in question is O=C(CCCN1CCC(O)(c2ccc(Cl)cc2)CC1)c1ccc(F)cc1
0.49

Indicate its recorded growth inhibition; the compound in question is CCOc1nc2cccc(C(=O)OC(C)OC(=O)OC3CCCCC3)c2n1Cc1ccc(-c2ccccc2-c2nn[nH]n2)cc1 (stereo not given)
-1.28

Indicate its recorded growth inhibition; the compound in question is CCNC(=O)CCC/C=C\C[C@@H]1[C@@H](/C=C/[C@@H](O)CCc2ccccc2)[C@H](O)C[C@@H]1O
0.309

====

growth inhibition listing for selected compounds.
System: DIPGX7 (H3.3 K27M diffuse intrinsic pontine glioma line)
Assay: growth inhibition (% activity, log2 RLU normalised to DMSO / staurosporine); higher = more growth inhibition
Conditions: 33 µM
// units = %; emit number, no label

Use the examples below as a reference point.
Return reported growth inhibition for target or system DIPGX7, item CCN1CCCC1CNC(=O)c1cc(S(N)(=O)=O)ccc1OC (configuration not stated) .
2.35

Return reported growth inhibition for target or system DIPGX7, item CCOc1nc2cccc(C(=O)OCc3oc(=O)oc3C)c2n1Cc1ccc(-c2ccccc2-c2noc(=O)[nH]2)cc1 .
1.02

Return reported growth inhibition for target or system DIPGX7, item CCC(C)(C)C(=O)O[C@H]1C[C@@H](C)C=C2C=C[C@H](C)[C@H](CC[C@@H]3C[C@@H](O)CC(=O)O3)[C@H]21 .
9.48

More entries:
Return reported growth inhibition for target or system DIPGX7, item Cc1cc(C)nc(NS(=O)(=O)c2ccc(N)cc2)n1 .
-1.22

Return reported growth inhibition for target or system DIPGX7, item O=C(O)c1cc(-c2ccccc2)nc2ccccc12 .
0.465

Return reported growth inhibition for target or system DIPGX7, item C[N+]1(C)CCC(=C(c2ccccc2)c2ccccc2)CC1 .
2.7

====

System: DIPGX37
Assay: growth inhibition (% activity, log2 RLU normalised to DMSO / staurosporine); higher = more growth inhibition
Conditions: 33 µM
growth inhibition listing for selected compounds.
// units = %; emit number, no label

Indicate its recorded growth inhibition; the compound in question is CCCCc1oc2ccccc2c1C(=O)c1cc(I)c(OCCN(CC)CC)c(I)c1
3.87

====

Tested on: SUDIPGXIII (diffuse intrinsic pontine glioma line)
Assay: growth inhibition (% activity, log2 RLU normalised to DMSO / staurosporine); higher = more growth inhibition
Settings: 33 µM
PARAMETER: growth inhibition (%)
// units = %; emit number, no label

Use the examples below as a reference point.
Indicate its recorded growth inhibition; the molecule in question is CCN(CC)CCOC(=O)C1(C2CCCCC2)CCCCC1
0.956

Indicate its recorded growth inhibition; the molecule in question is Nc1ccn([C@H]2CC[C@@H](CO)O2)c(=O)n1
1.84

Indicate its recorded growth inhibition; the molecule in question is CN[C@@H]1[C@H](O)[C@H](NC)[C@H]2O[C@@]3(O)C(=O)C[C@@H](C)O[C@H]3O[C@@H]2[C@H]1O
0.316

Indicate its recorded growth inhibition; the molecule in question is CCCc1nc(C(C)(C)O)c(C(=O)OCc2oc(=O)oc2C)n1Cc1ccc(-c2ccccc2-c2nnn[nH]2)cc1
-2.02

More entries:
Indicate its recorded growth inhibition; the molecule in question is CC(C)C(=O)Nc1ccc([N+](=O)[O-])c(C(F)(F)F)c1
2.07

These entries and their values trace back to the supplement of paper PMC8253809.
